# tested-system: T1, Integrin alpha3/beta1 (human, UniProt P26006 33-1051; P05556 21-798)
# T1 construct: also called α3β1
# T1 sequence (P26006 33-1051 limits assumed, chain 1 of 2): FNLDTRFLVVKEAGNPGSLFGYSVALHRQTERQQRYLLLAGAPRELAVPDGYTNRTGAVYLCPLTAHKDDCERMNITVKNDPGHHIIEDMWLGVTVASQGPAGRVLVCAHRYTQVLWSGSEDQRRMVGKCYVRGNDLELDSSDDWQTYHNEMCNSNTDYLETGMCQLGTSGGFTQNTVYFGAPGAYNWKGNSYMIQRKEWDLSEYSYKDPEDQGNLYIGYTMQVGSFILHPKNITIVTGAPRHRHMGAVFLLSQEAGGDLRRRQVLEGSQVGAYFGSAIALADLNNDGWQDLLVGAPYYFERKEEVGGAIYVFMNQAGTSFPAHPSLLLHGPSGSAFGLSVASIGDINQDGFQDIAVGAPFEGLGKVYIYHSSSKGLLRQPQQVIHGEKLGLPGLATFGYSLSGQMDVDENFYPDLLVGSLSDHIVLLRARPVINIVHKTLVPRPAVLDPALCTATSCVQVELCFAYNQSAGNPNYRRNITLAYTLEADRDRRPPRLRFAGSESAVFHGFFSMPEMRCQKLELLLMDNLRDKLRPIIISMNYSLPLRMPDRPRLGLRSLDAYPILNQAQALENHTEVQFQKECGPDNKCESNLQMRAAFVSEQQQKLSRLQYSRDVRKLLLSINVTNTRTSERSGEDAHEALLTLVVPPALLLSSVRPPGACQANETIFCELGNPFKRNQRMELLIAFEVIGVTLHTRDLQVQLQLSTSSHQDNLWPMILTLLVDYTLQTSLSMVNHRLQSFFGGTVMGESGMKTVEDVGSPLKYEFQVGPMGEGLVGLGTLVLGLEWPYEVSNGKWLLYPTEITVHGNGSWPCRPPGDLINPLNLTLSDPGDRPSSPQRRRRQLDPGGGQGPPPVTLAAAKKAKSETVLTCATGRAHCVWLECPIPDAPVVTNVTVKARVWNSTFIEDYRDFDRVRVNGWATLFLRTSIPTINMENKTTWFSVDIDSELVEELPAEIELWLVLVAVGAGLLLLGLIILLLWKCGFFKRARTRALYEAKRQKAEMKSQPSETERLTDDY
# T1 sequence (P05556 21-798 limits assumed, chain 2 of 2): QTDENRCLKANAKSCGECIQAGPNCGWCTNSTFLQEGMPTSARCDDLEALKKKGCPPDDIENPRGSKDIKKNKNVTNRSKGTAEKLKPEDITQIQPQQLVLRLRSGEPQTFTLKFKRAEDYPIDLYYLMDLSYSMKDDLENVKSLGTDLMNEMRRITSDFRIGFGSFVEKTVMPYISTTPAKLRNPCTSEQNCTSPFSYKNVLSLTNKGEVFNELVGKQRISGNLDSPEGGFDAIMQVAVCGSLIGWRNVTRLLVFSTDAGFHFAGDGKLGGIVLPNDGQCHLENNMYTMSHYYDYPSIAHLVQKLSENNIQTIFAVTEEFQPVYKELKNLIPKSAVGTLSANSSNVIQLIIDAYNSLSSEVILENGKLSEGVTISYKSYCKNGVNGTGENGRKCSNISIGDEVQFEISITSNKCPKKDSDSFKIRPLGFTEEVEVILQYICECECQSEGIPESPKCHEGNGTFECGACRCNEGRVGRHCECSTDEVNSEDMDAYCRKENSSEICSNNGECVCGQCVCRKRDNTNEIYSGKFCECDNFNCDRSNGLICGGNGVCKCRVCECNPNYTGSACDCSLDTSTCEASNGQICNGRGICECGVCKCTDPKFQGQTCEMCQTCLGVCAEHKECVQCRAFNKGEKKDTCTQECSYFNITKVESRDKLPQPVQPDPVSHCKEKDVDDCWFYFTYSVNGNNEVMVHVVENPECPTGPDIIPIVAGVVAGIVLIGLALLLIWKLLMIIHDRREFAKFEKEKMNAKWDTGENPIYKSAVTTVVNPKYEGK
# assay-info: immunoprecipitation from PC-3 membrane lysate with biotinylated Fab, mass spectrometry

>  <binder>
Fab 23E9 (Fab, V domains shown) VH: EVELQQSGAELVKPGASVKLSCKASGYTFTNYYMHWVKQRPGQGLEWIGEINPSSGGTNFNEKFKSKATLTVDKSSSTAYMQLSSLTSEDSAVYYCTRFDRTENGMDYWGQGTSVTVSS VL: DNVLTQSPASLAVSPGQRATISCKASQSVDYDGDNYMNWYQQKPGQPPKLLIYAASNLESGIPARFSGSGSGTDFTLNIHPVEEEDAATYFCQQSDEDPYTFGGGTKLEIKR

>  <binding result>
binds

$$$$
>  <binder>
Fab 84H7 (Fab, V domains shown, also called 84H7 (63C10)) VH: EVQLQQSGAVLLKPGASVKLSCTASGFNIKDTYIHWMKQRPEQGLEWIGRIDPADGNTKYDPKFQGKATITADTSSNTAYLQLSSLTSEDTAVYYCTTAFYYSMDYWGQGTSVTVSS VL: DIVLTQSQKFMSTSVGDRVSVTCKASQNVGTNVAWYQQKPGQSPKALIYSASYRYSGVPDRFTGSGSGTDFTLTISNVQSEDLAEYFCQQYNSYPRTFGGGTKLEIKR

>  <binding result>
binds

$$$$
>  <binder>
Fab 61E10 (Fab, V domains shown) VH: EVQLQQSGAELVKPGASVKLSCKASGYTFTNYYMHWVKQRPGQGLEWIGEINPSSGGTNFNEKFKSKATLTVDKSSSTAYMQLSSLTSEDSAVYYCTRFDRTENGLDYWGQGTSVTVSS VL: DIVMTQSPASLAVSLGQRATISCKASQSVDYDGDNYMNWYQQKPGQPPKLLIYAASNLESGIPARFSGSGSGTDFTLNIHPVEEEDAATYYCQQSNGDPWTFGGGTKLEIKR

>  <binding result>
binds

$$$$
>  <binder>
Fab 36C1 (Fab, V domains shown) VH: EVQLQQSGAELVKPGASVKLSCTASGFNIKDTYIHWMNQRPEQGLEWIGRIDPADGNTKYDPKFQDKATITADTSSNTAYLHLSSLTSEDTAVYYCTTAFYYSMDYWGQGTSVTVSS VL: DIVMTQSQKFMSTSVGDRVSVTCKASQNVGTNVAWYQQTPGQSPKALIYSASYRYSGVPDRFTGSGSGTDFTLTINNVQSEDLAEYFCQQYNSYPRTFGGGTTLEIKR

>  <binding result>
binds

$$$$

Data credit: patent US20080008719A1
